# System: Ba/F3 EGFR del19/T790M/C797S cells
# Assay Method Text: Ba/F3 EGFR del19/T790M/C797S cell growth inhibition test (CellTiter-Glo, 72 hours)
# Type: cell-based
# Test Settings: Ba/F3 cell line overexpressing EGFR del19/T790M/C797S, 72 hours, CellTiter-Glo; read-out: Ba/F3 EGFR del19/T790M/C797S cells, GI50
Exercise: state measured log10 of GI50 for each of the compounds provided.
A value of 2 here means GI50 of 100 in nM, since values are log10.

May I ask what log10 of GI50 has been recorded for CC(C)N(c1ccccc1Nc1nc(Nc2ccc(N3CCN(C)CC3)c(F)c2)nc2[nH]ccc12)S(C)(=O)=O ?
1.86

May I ask what log10 of GI50 has been recorded for CN(C)C1CCN(c2ccc(Nc3nc(Nc4ccccc4N(C)S(C)(=O)=O)c4cc[nH]c4n3)cc2F)CC1 ?
1.23

May I ask what log10 of GI50 has been recorded for CN1CCN(c2ccc(Nc3nc(Nc4ccccc4N(C)S(C)(=O)=O)c4c(C#N)c[nH]c4n3)cc2F)CC1 ?
1.66

May I ask what log10 of GI50 has been recorded for CN1CCC2(CC1)CCN(c1ccc(Nc3nc(Nc4ccccc4N(C)S(C)(=O)=O)c4cc[nH]c4n3)cc1F)C2 ?
2.27

May I ask what log10 of GI50 has been recorded for CN1CCN(c2ccc(Nc3nc(Nc4ccccc4N(C)S(C)(=O)=O)c4cc[nH]c4n3)cc2)CC1 ?
0.49

May I ask what log10 of GI50 has been recorded for CN1CCN(c2ccc(Nc3nc(Nc4ccccc4N(C)S(C)(=O)=O)c4cc[nH]c4n3)nc2)CC1 ?
2.80

May I ask what log10 of GI50 has been recorded for CN1CCN(c2ccc(Nc3nc(Nc4ccccc4N(C)S(C)(=O)=O)c4cc[nH]c4n3)cc2Cl)CC1 ?
1.73

###

# System: Ba/F3 EGFR del19/T790M/C797S cells
# Assay Method Text: Ba/F3 EGFR del19/T790M/C797S cell growth inhibition test (CellTiter-Glo, 72 hours);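 further: compounds tested in tenfold steps from 10 µM down to 0.1 nM, with luminescence read on a microplate reader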
# Assay type: cell-based
# Test Settings: Ba/F3 cell line overexpressing EGFR del19/T790M/C797S, 72 hours, CellTiter-Glo; read-out: Ba/F3 EGFR del19/T790M/C797S cells, GI50
Friendly reminder: GI50 below 20 nM is rule met, at or above is rule not met.

Here's an entry: CN1CCN(c2ccc(Nc3nc(Nc4ccccc4N(C)S(C)(=O)=O)c4cn[nH]c4n3)cc2F)CC1 . Is its GI50 below 20 nM?
rule not met

Here's an entry: CN(c1ccccc1Nc1nc(Nc2ccc(N3CCN(CCO)CC3)c(F)c2F)nc2[nH]ccc12)S(C)(=O)=O . Is its GI50 below 20 nM?
rule met

Here's an entry: CN1CCC(c2ccc(Nc3nc(Nc4ccccc4N(C)S(C)(=O)=O)c4cc[nH]c4n3)cc2F)CC1 . Is its GI50 below 20 nM?
rule not met

Here's an entry: CN1CCN(c2ccc(Nc3nc(Nc4ccccc4NS(C)(=O)=O)c4cc[nH]c4n3)cc2F)CC1 . Is its GI50 below 20 nM?
rule not met

Here's an entry: CN(c1ccccc1Nc1nc(Nc2ccc(N3CCC4(CC3)COC4)c(F)c2)nc2[nH]ccc12)S(C)(=O)=O . Is its GI50 below 20 nM?
rule not met

Here's an entry: CCN1CCN(c2ccc(Nc3nc(Nc4ccccc4N(C)S(=O)(=O)CC)c4cc[nH]c4n3)cc2F)CC1 . Is its GI50 below 20 nM?
rule not met

Here's an entry: CN(c1ccccc1Nc1nc(Nc2ccc(N3CCNCC3)c(F)c2)nc2[nH]ccc12)S(C)(=O)=O . Is its GI50 below 20 nM?
rule not met

Here's an entry: CCN1CCN(c2ccc(Nc3nc(Nc4ccccc4N(C)S(C)(=O)=O)c4c(F)c[nH]c4n3)cc2F)CC1 . Is its GI50 below 20 nM?
rule not met

Here's an entry: CN1CCN(c2ccc(Nc3nc(Nc4ccccc4N(C4CC4)S(C)(=O)=O)c4cc[nH]c4n3)cc2F)CC1 . Is its GI50 below 20 nM?
rule not met

Here's an entry: CCN1CCN(c2ccc(Nc3nc(Nc4ccccc4N(CC)S(=O)(=O)CC)c4cc[nH]c4n3)cc2F)CC1 . Is its GI50 below 20 nM?
rule not met

Here's an entry: CN1CCN(c2ccc(Nc3nc(Nc4ccccc4N(C)S(=O)(=O)C4CC4)c4cc[nH]c4n3)cc2F)CC1 . Is its GI50 below 20 nM?
rule not met

Here's an entry: CN1CCC2(CC1)CCN(c1ccc(Nc3nc(Nc4ccccc4N(C)S(C)(=O)=O)c4cc[nH]c4n3)cc1F)CC2 . Is its GI50 below 20 nM?
rule met

Here's an entry: CN1CCN(c2ccc(Nc3nc(Nc4ccccc4N(C)S(C)(=O)=O)c4cc[nH]c4n3)c(F)c2F)CC1 . Is its GI50 below 20 nM?
rule met

Here's an entry: CCN1CCN(C2CCN(c3ccc(Nc4nc(Nc5ccccc5NS(C)(=O)=O)c5cc[nH]c5n4)cc3F)CC2)CC1 . Is its GI50 below 20 nM?
rule met

Here's an entry: CCN1CCN(C2CCN(c3ccc(Nc4nc(Nc5ccccc5N(C)S(C)(=O)=O)c5cc[nH]c5n4)cc3F)CC2)CC1 . Is its GI50 below 20 nM?
rule met

Here's an entry: CN1CCC2(C1)CN(c1ccc(Nc3nc(Nc4ccccc4N(C)S(C)(=O)=O)c4cc[nH]c4n3)cc1F)C2 . Is its GI50 below 20 nM?
rule not met

Here's an entry: CC(C)S(=O)(=O)N(C)c1ccccc1Nc1nc(Nc2ccc(N3CCN(C)CC3)c(F)c2)nc2[nH]ccc12 . Is its GI50 below 20 nM?
rule not met
